Test system: human lung cancer strain NCI-H441;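 further: cell proliferation inhibition after four days measured by CellTiter-Glo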
Test method notes: cells
Condition info: NCI-H441, 96 h, read-out: NCI-H441 IC50 (nM), NCI-H441 cell proliferation, 4 days, CellTiter-Glo
The label 1.0 is reserved for IC50 strictly under 5 nM; 0.0 covers values equal to or above it.

>  <Mol smiles>
CCO[C@@H]1C[C@H]2C(=O)NC3(CC(C)(C)C3)C(=O)N(C)[C@@H](C3CCCC3)C(=O)N(C)[C@H](C(=O)N(C)C)CC(=O)N3CCCCC[C@H]3C(=O)N[C@@H]([C@@H](C)CC)C(=O)N(C)CC(=O)N(C)[C@H]3C/C=C\CCN(C3=O)[C@@H](Cc3ccc(C(F)(F)F)cc3)C(=O)N(C)CC(=O)N[C@@H](CCc3cc(F)c(C(F)(F)F)c(F)c3)C(=O)N2C1

>  <Target or test system>
human lung cancer strain NCI-H441;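 further: cell proliferation inhibition after four days measured by CellTiter-Glo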

>  <Answer label>
0.0

$$$$
>  <Mol smiles>
CCCOC[C@H]1C(=O)N[C@@H]([C@@H](C)CC)C(=O)N(C)CC(=O)N(C)[C@H]2C/C=C\CCN(C2=O)[C@@H](Cc2ccc(C(F)(F)F)cc2)C(=O)N(C)CC(=O)N[C@@H](CCc2cc(F)c(C(F)(F)F)c(F)c2)C(=O)N2C[C@H](OCC)C[C@H]2C(=O)NC2(CCC2)C(=O)N(C)[C@@H](C2CCCC2)C(=O)N(C)[C@H](C(=O)N(C)CCC)CC(=O)N1C

>  <Target or test system>
human lung cancer strain NCI-H441;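 further: cell proliferation inhibition after four days measured by CellTiter-Glo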

>  <Answer label>
0.0

$$$$
>  <Mol smiles>
CC[C@H](C)[C@@H]1NC(=O)[C@H](C2CCC2)N(C)C(=O)C[C@@H](C(=O)N(C)C)N(C)C(=O)[C@H](C2CCCC2)N(C)C(=O)C2(CC(C)(C)C2)NC(=O)[C@@H]2C[C@H](C)CN2C(=O)[C@H](CCc2ccc(C(F)(F)F)c(OC)c2)NC(=O)CN(C)C(=O)[C@H](Cc2ccc(C(F)(F)F)cc2)N2CC/C=C\C[C@@H](C2=O)N(C)C(=O)CN(C)C1=O

>  <Target or test system>
human lung cancer strain NCI-H441;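 further: cell proliferation inhibition after four days measured by CellTiter-Glo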

>  <Answer label>
0.0

$$$$
>  <Mol smiles>
CC[C@H](C)[C@@H]1NC(=O)[C@H](CC(F)(F)F)N(C)C(=O)C[C@@H](C(=O)N(C)C)N(C)C(=O)[C@H](C2CCCC2)N(C)C(=O)C2(CC(C)(C)C2)NC(=O)[C@@H]2C[C@H](C)CN2C(=O)[C@H](CCc2cc(F)c(C(F)(F)F)c(F)c2)NC(=O)CN(C)C(=O)[C@H](Cc2ccc(C(F)(F)F)cc2)N2CC/C=C\C[C@@H](C2=O)N(C)C(=O)CN(C)C1=O

>  <Target or test system>
human lung cancer strain NCI-H441;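 further: cell proliferation inhibition after four days measured by CellTiter-Glo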

>  <Answer label>
1.0

$$$$
>  <Mol smiles>
CC[C@H](C)[C@@H]1NC(=O)[C@H](CC)N(C)C(=O)C[C@@H](C(=O)N(C)C)N(C)C(=O)[C@H](C2CCCC2)N(C)C(=O)C2(CCCC2)N(C)C(=O)[C@@H]2CCCN2C(=O)[C@H](CCc2cc(F)c(C(F)(F)F)c(F)c2)NC(=O)CN(C)C(=O)[C@H](Cc2ccc(C)cc2)N2CC/C=C\C[C@@H](C2=O)N(C)C(=O)[C@@H]2CCCN2C1=O

>  <Target or test system>
human lung cancer strain NCI-H441;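 further: cell proliferation inhibition after four days measured by CellTiter-Glo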

>  <Answer label>
0.0

$$$$
>  <Mol smiles>
CCO[C@@H]1C[C@H]2C(=O)NC3(CC(C)(C)C3)C(=O)N(C)[C@@H](C(CC)CC)C(=O)N(C)[C@H](CC)CC(=O)N(C)[C@@H](CC3CC3)C(=O)N[C@@H]([C@@H](C)CC)C(=O)N(C)CC(=O)N(C)[C@H]3C/C=C\CCN(C3=O)[C@@H](Cc3ccc(C(F)(F)F)cc3)C(=O)N(C)CC(=O)N[C@@H](CCc3cc(F)c(C(F)(F)F)c(F)c3)C(=O)N2C1

>  <Target or test system>
human lung cancer strain NCI-H441;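 further: cell proliferation inhibition after four days measured by CellTiter-Glo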

>  <Answer label>
0.0

$$$$

These measurements were taken from patent US20240158446A1.
